meta.source: patent US8273760B2

# Tested on: MDA-MB-231/ATCC
# Assay Comment: In vitro anticancer assay (NCI panel), MDA-MB-231/ATCC
# Format: cell-based
# Study Conditions: Homo sapiens, breast cancer
Structures can show the parent of a compound that is named as a salt.
Property: GI50 (nM)
# output: bare number, implied unit nM

// GI50 lookup, key: Cl.OCCNCCNc1nc2ccccc2c2[nH]c3ccccc3c12 [Compound 9, hydrochloride]
1240

// GI50 lookup, key: Cl.OCCNc1nc2ccccc2c2[nH]c3ccccc3c12 [Compound 7d, hydrochloride]
430

// GI50 lookup, key: NCCCN1CCN(CCCNc2nc3ccccc3c3[nH]c4ccccc4c23)CC1 [Compound 6, hydrochloride]
230

// GI50 lookup, key: Oc1ccc(CCNc2nc3ccccc3c3[nH]c4ccccc4c23)cc1 [Compound 7a, hydrochloride]
1360

// GI50 lookup, key: CN(CCCN)CCCNc1nc2ccccc2c2[nH]c3ccccc3c12 [Compound 10, hydrochloride]
170

// GI50 lookup, key: c1ccc2c(c1)nc(NCCN1CCNCC1)c1c3ccccc3[nH]c21
340

// GI50 lookup, key: CN(CCCNc1nc2ccccc2c2[nH]c3ccccc3c12)CCCNc1nc2ccccc2c2[nH]c3ccccc3c12.Cl [Compound 8b, hydrochloride]
90

// GI50 lookup, key: Cl.Nc1nc2ccccc2c2[nH]c3ccccc3c12 [Compound 7e, hydrochloride]
1220

// GI50 lookup, key: Cl.c1ccc2c(c1)nc(NCCCNCCCNc1nc3ccccc3c3[nH]c4ccccc4c13)c1c3ccccc3[nH]c21 [Compound 8a, hydrochloride]
180

* * *

Counter-ions that a name gives are not always drawn.
Property: GI50 (nM)
# output: bare number, implied unit nM

Lab request: please report GI50 under test system OVCAR-5 for Cl.c1ccc2c(c1)nc(NCCCNCCCNc1nc3ccccc3c3[nH]c4ccccc4c13)c1c3ccccc3[nH]c21 [Compound 8a, hydrochloride]
220

Lab request: please report GI50 under test system OVCAR-5 for CN(CCCNc1nc2ccccc2c2[nH]c3ccccc3c12)CCCNc1nc2ccccc2c2[nH]c3ccccc3c12.Cl [Compound 8b, hydrochloride]
80

Lab request: please report GI50 under test system OVCAR-5 for Oc1ccc(CCNc2nc3ccccc3c3[nH]c4ccccc4c23)cc1 [Compound 7a, hydrochloride]
2890

Lab request: please report GI50 under test system OVCAR-5 for CN(CCCN)CCCNc1nc2ccccc2c2[nH]c3ccccc3c12 [Compound 10, hydrochloride]
150

Lab request: please report GI50 under test system OVCAR-5 for Cl.OCCNc1nc2ccccc2c2[nH]c3ccccc3c12 [Compound 7d, hydrochloride]
1030

Lab request: please report GI50 under test system OVCAR-5 for Cl.Nc1nc2ccccc2c2[nH]c3ccccc3c12 [Compound 7e, hydrochloride]
1840

Lab request: please report GI50 under test system OVCAR-5 for c1ccc2c(c1)nc(NCCN1CCNCC1)c1c3ccccc3[nH]c21
540

Lab request: please report GI50 under test system OVCAR-5 for NCCCN1CCN(CCCNc2nc3ccccc3c3[nH]c4ccccc4c23)CC1 [Compound 6, hydrochloride]
250

Lab request: please report GI50 under test system OVCAR-5 for Cl.OCCNCCNc1nc2ccccc2c2[nH]c3ccccc3c12 [Compound 9, hydrochloride]
580

* * *

# Tested on: HT29
Counter-ions that a name gives are not always drawn.
Kindly supply the reported log10(GI50) values for the records listed here.
Each number you see is log10 of GI50, and the unit inside the log is nM.

// log10(GI50) lookup, key: c1ccc2c(c1)nc(NCCN1CCNCC1)c1c3ccccc3[nH]c21
2.08

// log10(GI50) lookup, key: NCCCN1CCN(CCCNc2nc3ccccc3c3[nH]c4ccccc4c23)CC1 [Compound 6, hydrochloride]
2.15

// log10(GI50) lookup, key: Cl.c1ccc2c(c1)nc(NCCCNCCCNc1nc3ccccc3c3[nH]c4ccccc4c13)c1c3ccccc3[nH]c21 [Compound 8a, hydrochloride]
1.70

// log10(GI50) lookup, key: Oc1ccc(CCNc2nc3ccccc3c3[nH]c4ccccc4c23)cc1 [Compound 7a, hydrochloride]
3.15

// log10(GI50) lookup, key: Cl.OCCNc1nc2ccccc2c2[nH]c3ccccc3c12 [Compound 7d, hydrochloride]
2.45

// log10(GI50) lookup, key: Cl.Nc1nc2ccccc2c2[nH]c3ccccc3c12 [Compound 7e, hydrochloride]
2.71

// log10(GI50) lookup, key: Cl.OCCNCCNc1nc2ccccc2c2[nH]c3ccccc3c12 [Compound 9, hydrochloride]
2.75

// log10(GI50) lookup, key: CN(CCCN)CCCNc1nc2ccccc2c2[nH]c3ccccc3c12 [Compound 10, hydrochloride]
2.18
